The entries that follow carry IC50 values tested on JNK1α1 (Homo sapiens, UniProt P45983), drawn from several published reports.

Sample answers from the record:
COc1ccc(CC(=O)Nc2ccsc2-c2nnc(C(C)C)o2)cc1 ... > 10000 nM
O=C(Cc1ccc(F)c2cnccc12)Nc1scc(Br)c1-c1ncn[nH]1 ... < 100 nM
O=C(CN1C(=O)CCc2ccccc21)Nc1scc(Cl)c1-c1ncn[nH]1 ... < 100 nM

Provide the reported IC50 of each entry below, same order.
1. Cn1cnc(-c2c(Cl)csc2NC(=O)Cn2c(=O)ccc3cnc(C(F)(F)F)cc32)n1
2. O=C(Cn1c(=O)ccc2cc(C(F)(F)F)ccc21)Nc1scc(Br)c1-c1nnc[nH]1
3. COC(=O)c1c(Cc2ccc(C(=O)N[C@H]3[C@@H]4C[C@@H]5C[C@H]3C[C@@](O)(C5)C4)cc2)c(=O)c2ccc(Cl)cc2n1-c1ccccc1
4. Cn1cnc(-c2c(C#N)csc2NC(=O)CN2C(=O)CCc3ncccc32)n1

["< 100 nM", "< 100 nM", "51 nM", "< 100 nM"]

// each molecule listed below needs its IC50
1. COc1cc(N2CCOCC2)ccc1Nc1nc(NC2CCCCC2)c2cc[nH]c2n1
2. CS(=O)(=O)Nc1ccc(F)c(C(=O)c2c[nH]c3ncc(-c4cccnc4)cc23)c1
3. COC(=O)c1c(Cc2ccc(C(=O)N[C@@H]3[C@@H]4C[C@@H]5C[C@H]3C[C@@](O)(C5)C4)cc2)c(=O)c2ccc(Cl)cc2n1-c1ccccc1

1: 1670 nM; 2: ≤ 10000 nM; 3: 12 nM
